This collection of values is drawn from the supplement of paper PMC10567573.

B1: RSPH3 (parent)
chain: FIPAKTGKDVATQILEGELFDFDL

- Variants of: B1
- PROTOCOL TEXT: protein stability index of a GFP-peptide fusion (GPS, HEK-293T) (PSI 1-6); higher = more stable;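 also: lentivirally expressed fusions sorted by FACS into six bins by GFP to DsRed ratio, PSI derived from sequencing read proportions per bin multiplied by bin number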
- CONDITION: c terminus: a fixed tail appended
ATTRIBUTE MEASURED: protein stability index
// keep it numeric: no unit symbol after the value

For orientation, consider the following solved cases.
   mutant       attribute_measured  observed_result
0     F1R  protein stability index             4.15
1    L19C  protein stability index             1.83
2    F20T  protein stability index             2.13
3    D21M  protein stability index             2.98
4    L19F  protein stability index              1.7
5     K5I  protein stability index             1.63

Prompt line: Endpoint output: protein stability index of `K8T` . Value?
Response line: 1.6

Prompt line: So what's the measured protein stability index for this one? `D23K`
Response line: 2.12

Prompt line: Item `I2G` has what recorded protein stability index?
Response line: 3.73

Prompt line: Any idea what its protein stability index is? The variant is `D9R`
Response line: 2.06

Prompt line: Requested field: protein stability index. Item: `F22Y`
Response line: 2.12

Prompt line: What value of protein stability index has been reported for the following variant? `G7D`
Response line: 2.46
